From: ChEMBL document CHEMBL4376865

Assay: Clearance in BALB/c mouse at 1 mg/kg, iv measured upto 24 hrs by LC-MS/MS analysis
Conditions: in vivo
The following compounds are listed with their measured clearance at 24 h values.
assay metric: clearance at 24 h (mL/min/kg)

{"smiles text": "C/C=C/c1nnn(Cc2ccc(C(F)(F)F)cc2)c1C(=O)N[C@@H](C)c1ccc(C(=O)O)cc1", "obs value": 28.3}
{"smiles text": "C[C@H](NC(=O)c1c(-c2ccsc2)nnn1Cc1ccc(C(F)(F)F)cc1)c1ccc(C(=O)O)cc1", "obs value": 50}

* * *

Test: in vivo
Conditions: BALB/c, mouse, po, 5 mg/kg
Description: Oral bioavailability in BALB/c mouse at 5 mg/kg measured upto 24 hrs by LC-MS/MS analysis
Each record here notes measured bioavailability at 24 h.
assay metric: bioavailability at 24 h (%)

{"smiles text": "C/C=C/c1nnn(Cc2ccc(C(F)(F)F)cc2)c1C(=O)N[C@@H](C)c1ccc(C(=O)O)cc1", "unit symbol": "%", "obs value": 48}
{"smiles text": "C[C@H](NC(=O)c1c(-c2ccsc2)nnn1Cc1ccc(C(F)(F)F)cc1)c1ccc(C(=O)O)cc1", "unit symbol": "%", "obs value": 40.9}
